Tgt: full-length activated BTK (wildtype) (Homo sapiens (Human), UniProt Q06187)
Sequence (Q06187 whole entry): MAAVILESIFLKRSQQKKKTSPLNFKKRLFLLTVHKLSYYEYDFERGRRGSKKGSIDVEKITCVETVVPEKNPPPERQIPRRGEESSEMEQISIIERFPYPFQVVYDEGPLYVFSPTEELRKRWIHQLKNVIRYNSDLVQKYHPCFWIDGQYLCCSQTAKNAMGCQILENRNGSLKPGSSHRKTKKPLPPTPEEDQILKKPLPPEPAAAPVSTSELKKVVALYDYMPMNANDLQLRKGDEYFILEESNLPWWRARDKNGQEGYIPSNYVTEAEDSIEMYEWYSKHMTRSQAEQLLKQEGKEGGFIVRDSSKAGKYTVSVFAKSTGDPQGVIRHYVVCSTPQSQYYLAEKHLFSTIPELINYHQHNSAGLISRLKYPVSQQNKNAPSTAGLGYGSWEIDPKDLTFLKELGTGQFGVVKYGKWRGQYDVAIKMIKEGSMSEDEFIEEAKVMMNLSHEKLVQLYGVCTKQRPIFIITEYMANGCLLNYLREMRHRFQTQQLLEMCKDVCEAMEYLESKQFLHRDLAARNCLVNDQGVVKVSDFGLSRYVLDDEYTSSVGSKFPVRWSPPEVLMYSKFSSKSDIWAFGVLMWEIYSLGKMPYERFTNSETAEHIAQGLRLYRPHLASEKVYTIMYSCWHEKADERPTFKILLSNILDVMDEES
Test name: AlphaScreen assay, wild-type BTK
Reported metric: IC50 (nM)

For orientation, consider the following solved cases.
Quote IC50 with test system full-length activated BTK (wildtype) (Homo sapiens (Human), UniProt Q06187) for O=C(c1ccc(Oc2ccccc2)cc1Cl)c1c[nH]c2ncnc(NC[C@@H]3C[C@@H](CO)N(Cc4ccccc4)C3)c12
236

Quote IC50 with test system full-length activated BTK (wildtype) (Homo sapiens (Human), UniProt Q06187) for O=C(Nc1ccccc1)c1cccc(C(=O)c2c[nH]c3ncnc(N[C@@H]4CC[C@@H](CO)OC4)c23)c1
620

Quote IC50 with test system full-length activated BTK (wildtype) (Homo sapiens (Human), UniProt Q06187) for O=C(Nc1ccc(Cl)c(C(=O)c2c[nH]c3ncnc(N[C@@H]4CC[C@@H](CO)OC4)c23)c1)c1cc2c(cn1)CCCC2
0.98

I. CC#CC(=O)N1CCCC1CNc1ncnc2[nH]cc(C(=O)c3ccc(Oc4ccccc4)cc3Cl)c12 (racemic) [Compound I-328r]
II. COCCNC(=O)c1ccc(C(=O)c2c[nH]c3ncnc(N[C@@H]4CC[C@@H](CO)OC4)c23)c(Cl)c1
III. O=C(c1ccc(C(=O)N2CCOCC2)cc1Cl)c1c[nH]c2ncnc(N[C@@H]3CC[C@@H](CO)OC3)c12
IV. O=C(Nc1ccccc1)c1ccc(C(=O)c2c[nH]c3ncnc(N[C@@H]4CC[C@@H](CO)OC4)c23)cc1
Task for the reader: rank each entry by its IC50, from the minimum upward. Provide your answer as the labels ordered per the instruction.
I, IV, II, III
(I: 0.98 nM, IV: 318 nM, II: 491 nM, III: 1140 nM)

----------
Tgt: full-length activated BTK mutant C481S (Homo sapiens (Human), UniProt Q06187, C481S)
Sequence (Q06187 whole entry C481S): as the sequence (Q06187 whole entry) above, with C481S counted along it
Test name: AlphaScreen assay, BTK mutant C481S
Reported metric: IC50 (nM)

For orientation, consider the following solved cases.
Look up IC50 of COCCNC(=O)c1ccc(C(=O)c2c[nH]c3ncnc(N[C@@H]4CC[C@@H](CO)OC4)c23)c(Cl)c1 and report it.
1150

Look up IC50 of Cn1cc(NC(=O)c2ccc(C(=O)c3c[nH]c4ncnc(N[C@@H]5CC[C@@H](CO)OC5)c34)c(Cl)c2)cn1 and report it.
942

Look up IC50 of CC(=O)N1C[C@H](Nc2ncnc3[nH]cc(C(=O)c4ccc(Oc5ccccc5)cc4Cl)c23)C[C@H]1CO and report it.
52

Look up IC50 of C=CC(=O)N1CCCC1CNc1ncnc2[nH]cc(C(=O)c3ccc(Oc4ccccc4)cc3Cl)c12 (racemic) [Compound I-325r] and report it.
136

1. C=CS(=O)(=O)N1CCCC1CNc1ncnc2[nH]cc(C(=O)c3ccc(Oc4ccccc4)cc3Cl)c12 (racemic) [Compound I-326r]
2. O=C(c1ccc(Oc2ccccc2)cc1Cl)c1c[nH]c2ncnc(N[C@H]3CN[C@H](CO)C3)c12 [Compound I-345e]
3. CC(=O)N1CC(Nc2ncnc3[nH]cc(C(=O)c4ccc(Oc5ccccc5)cc4Cl)c23)CCC1CO (racemic)
Task for the reader: rank each entry by its IC50, from the minimum upward. Provide your answer as the labels ordered per the instruction.
3, 2, 1

----------
Tgt: full-length activated BTK (wildtype) (Homo sapiens (Human))
Test name: AlphaScreen assay, wild-type BTK
Format: biochemical
Condition context: read-out: BTK % @ 10 uM, @ 10 uM
Reported metric: inhibition at 10 µM (%)

a. O=C(NCCN1CCOCC1)c1ccc(C(=O)c2c[nH]c3ncnc(N[C@@H]4CC[C@@H](CO)OC4)c23)c(Cl)c1
b. O=C(c1cccc(NC(=O)C2CCOCC2)c1)c1c[nH]c2ncnc(N[C@@H]3CC[C@@H](CO)OC3)c12
Endpoint returns the identifier whose inhibition at 10 µM is numerically larger, either a or b . In your reply, give the label of the chosen option.
a
